property: log10 intrinsic clearance, rat liver microsomes (log10 of the value in mL/min/kg)
Friendly reminder: values = log10 of intrinsic clearance, rat liver microsomes, unit mL/min/kg.

Recorded log10 intrinsic clearance, rat liver microsomes, per entry:
- C=C(C)COc1cccc(C(=O)NCc2nncn2C2CCCCC2)c1: 3.32
- O=C(c1ccccc1)N1CCN2C(=O)N(Cc3ccccc3)C(=O)[C@H]2C1: 1.90
- CN1CCN(C(=O)c2ccc3cc(CCNc4ncnc5ccc(C#N)cc45)ccc3c2)CC1: 2.38
- CCN(CC)C(=O)N1CCCN(C(=O)N(CC)CC)CC1: 2.84

Which log10 intrinsic clearance, rat liver microsomes is reported for this compound? `Cc1c[nH]c2nccc(Oc3c(F)cc(Nc4cc(Cl)nc(N)n4)cc3F)c12` 2.24

Which log10 intrinsic clearance, rat liver microsomes is reported for this compound? `Cc1c(C(=O)Nc2ccc(N3C[C@@H](C)O[C@H](C)C3)nc2)cccc1-c1ccc(OC(F)(F)F)cc1` 1.87

---

Label Criterion met when MDR1-MDCK efflux ratio is at or above 0.7; otherwise label Criterion not met.

Record `N#Cc1cc(-c2n[nH]c(-c3ccncc3)n2)ccn1` ; criterion: MDR1-MDCK efflux ratio no lower than 0.7. Met? Criterion met

Record `COc1ccc(OC)c(S(=O)(=O)Nc2cccc(CCc3ccccn3)c2)c1` ; criterion: MDR1-MDCK efflux ratio no lower than 0.7. Met? Criterion met

---

Label T when intrinsic clearance, rat liver microsomes is at or above 1000 mL/min/kg; otherwise label F.

Example entries begin here.
• Clc1ccc(-c2ccc(CNCC3CCCO3)o2)c(Cl)c1 (stereo unspecified) = T
• Cc1nc(C2CCN(CC(N)=O)CC2)no1 = F

Record `Cc1ccc(-n2cc[nH]c(=O)c2=O)cc1` ; criterion: intrinsic clearance, rat liver microsomes no lower than 1000 mL/min/kg. Met? F

Record `Cc1ccc(CNC(=O)CN2CCC(n3nnc4cc(C(F)(F)F)ccc43)CC2)cc1` ; criterion: intrinsic clearance, rat liver microsomes no lower than 1000 mL/min/kg. Met? F

Record `Cc1ccccc1OCCCNc1cc(Cn2c(C)nc3ccccc32)nc(N)n1` ; criterion: intrinsic clearance, rat liver microsomes no lower than 1000 mL/min/kg. Met? T

Record `CC(C)CCN1CCn2c1nc1c2c(=O)n(C)c(=O)n1C` ; criterion: intrinsic clearance, rat liver microsomes no lower than 1000 mL/min/kg. Met? F

Record `O=c1[nH]c2ccccc2n1C1CCN(Cc2nc(Cc3ccccc3)no2)CC1` ; criterion: intrinsic clearance, rat liver microsomes no lower than 1000 mL/min/kg. Met? F

Record `O=C(O)CCC(=O)Nc1ccccc1-c1nc2ccccc2[nH]c1=O` ; criterion: intrinsic clearance, rat liver microsomes no lower than 1000 mL/min/kg. Met? F

Record `Cc1cc(C(=O)N(C)Cc2ccccc2C)[nH]n1` ; criterion: intrinsic clearance, rat liver microsomes no lower than 1000 mL/min/kg. Met? F

Record COc1ccc(CC2CN3CCN(C(=O)OCc4ccccc4)CC3CO2)cc1 (stereo unspecified) ; criterion: intrinsic clearance, rat liver microsomes no lower than 1000 mL/min/kg. Met? F

Record `CC(C)N(CCCNC(=O)Nc1ccc(C(C)(C)C)cc1)C[C@@H]1O[C@@H](n2cc(Br)c3c(N)ncnc32)[C@H](O)[C@H]1O` ; criterion: intrinsic clearance, rat liver microsomes no lower than 1000 mL/min/kg. Met? T

---

- assay.context: pH 6.8
Quick reference: aqueous solubility of the listed items.
Respond with the bare value in µg/mL.

* O=C(CNc1ccc(C(=O)N2CCCC2)cc1)N1CCCCC1 | 54.2
* CC(=O)NCc1ccc(-c2ccccc2C(=O)O)cc1 | 31.2
* CN(C(=O)c1cc2ccc(C(C)(C)C)cc2[nH]1)C1(C#N)CCC1 | 0.22
* Cc1ccc(NC(=O)CN2CCCN(c3ccc(C(F)(F)F)cn3)CC2)c(F)c1 | 24.6
* Fc1ccc(-c2cc(C3CCNCC3)ccn2)cc1 | 41
* COc1ccc(-n2cc3c(c2-c2ccccc2Br)c(=O)n(C)c(=O)n3C)cc1 | 4.92
* Cn1ccnc1CNc1cc(Br)ccc1-n1cccn1 | 48.6
* Cn1nc(-c2cn(Cc3ccc(CO)cc3)nn2)c2c(Cl)cccc21 | 19.2

Which aqueous solubility is reported for this molecule? `Cc1cnc(-c2nc(NCc3ccccn3)ncc2-c2onc(C)c2C)cn1` 59

Which aqueous solubility is reported for this molecule? `CN(C)CCNc1c2c(c(C#N)c3nc4ccccc4n13)CCCC2` 36

Which aqueous solubility is reported for this molecule? `CN1CCc2nc(NC(=O)c3cncn3-c3ccccc3)sc2C1` 43.4

---

Quick reference: intrinsic clearance, human liver microsomes of the listed items.
Respond with the bare value in mL/min/kg.

Recorded intrinsic clearance, human liver microsomes, per entry:
* COc1cc([C@@H]2c3cc4c(cc3[C@H](O)[C@H]3COC(=O)[C@@H]23)OCO4)cc(OC)c1OC | 44.5
* O=C(CCCC(=O)N1CCN(c2nsc3ccccc23)CC1)Nc1nccs1 | 73.7
* c1ccc(N2CCOCC2)c(CNc2cc(N3CCCC3)ncn2)c1 | 190

Which intrinsic clearance, human liver microsomes is reported for this compound? `CCCc1nnc2sc(-c3cc(C(C)C)nn3C)nn12` 31.3

Which intrinsic clearance, human liver microsomes is reported for this compound? `COc1ccccc1/C=C/CN1CCCC2(C1)OCCO2` 17.7

---

- assay.context: pH 6.8
Quick reference: aqueous solubility of the listed items.
Respond with the bare value in mg/mL.

Recorded aqueous solubility, per entry:
• O=C(Nc1ccn(Cc2ccccn2)n1)c1c(F)cccc1I = 0.0612
• Cc1nccc(-c2cccc(NCc3cc(C)on3)c2)n1 = 0.0466
• Cc1nc2c(c(N(C)Cc3ccccc3)n1)CCN(Cc1ccccc1)C2 = 0.0297
• CCN1CCc2ncnc(N3CCNc4ccccc4C3)c2C1 = 0.0521
• COC(=O)[C@@H]1C[C@H](O)CN1CC#Cc1ccc(Cl)cc1 = 0.0318
• CC(=O)Nc1ccc2nc(C)cc(O)c2c1 = 0.0387
• CCC(=O)N(C)c1ccccc1C(=O)O = 0.0364
• Cc1cc(C)c(NC(=O)c2ccnc(OC3CCC3)c2)c(C)n1 = 0.0361

Which aqueous solubility is reported for this molecule? `Cc1cccc(OCCn2c(N)nc3ccccc32)c1` 0.0391

Which aqueous solubility is reported for this molecule? `CCN1CCN(c2ccc(NC(=O)c3ncoc3-c3ccc4ccccc4c3)cc2)CC1` 0.00102

---

Label 1 (yes) when MDR1-MDCK efflux ratio is at or above 1; otherwise label 0 (no).

Example entries begin here.
• CC1CCC(N(Cc2nnc(C3CCC3)o2)C2CCC(O)CC2)CC1 (centres undefined) = 1 (yes)
• Cc1nc(-c2ccccc2)c(C(=O)Nc2ccc(Cl)c(C(F)(F)F)c2)s1 = 0 (no)
• Oc1ccc(-c2noc(C3CC3)n2)cc1 = 0 (no)
• Cc1cc(-c2cn(C)nc2[C@H]2CC[C@H](CNC(=O)C(C)C)CC2)on1 = 1 (yes)
• CC#CC(=O)N[C@H]1CCCN(c2c(F)cc(C(N)=O)c3[nH]c(C)c(C)c23)C1 = 1 (yes)

Record `Cc1ccccc1N(CC(=O)N(C)C)S(C)(=O)=O` ; criterion: MDR1-MDCK efflux ratio no lower than 1. Met? 1 (yes)

Record `CCc1ccc(CC)c(C(=O)CSc2nncs2)c1` ; criterion: MDR1-MDCK efflux ratio no lower than 1. Met? 0 (no)

Record `CC#CCNc1ccc(-n2cnnn2)c(C)c1` ; criterion: MDR1-MDCK efflux ratio no lower than 1. Met? 0 (no)

Record `CN(CCOCCOc1ccccc1-c1ccccc1)Cc1ccccc1.O=C(O)C(=O)O` ; criterion: MDR1-MDCK efflux ratio no lower than 1. Met? 1 (yes)

Record `CC(C)NC(=O)Cn1nnnc1C(C)(C)C` ; criterion: MDR1-MDCK efflux ratio no lower than 1. Met? 1 (yes)

Record `Cc1nccn1CCCN1C(=O)SC(C)(C)C1=O` ; criterion: MDR1-MDCK efflux ratio no lower than 1. Met? 1 (yes)

Record `O=C(Nc1cn(CCOCC(F)(F)F)nc1-c1ccccn1)c1coc(-c2cn[nH]c2)n1` ; criterion: MDR1-MDCK efflux ratio no lower than 1. Met? 1 (yes)

Record `COc1ccccc1-c1cc(NC(=O)c2cccc(N3CCNC3=O)c2)[nH]n1` ; criterion: MDR1-MDCK efflux ratio no lower than 1. Met? 1 (yes)

---

Label fulfilled when fraction unbound, human plasma is at or above 0.1; otherwise label not fulfilled.

Example entries begin here.
- COCCc1noc(CN2CC(c3ccccc3)(c3ccccc3)CCC2=O)n1: fulfilled
- Cc1cc(C)c2c(N)c(C(=O)NCc3ccc(Cl)cc3)sc2n1: not fulfilled
- CC1CN(C(=O)c2cccnc2N2CCOCC2)CC(c2ccccc2)O1 (stereo unspecified): fulfilled
- COc1ccc(OCC(=O)Nc2cccc(Cl)c2N2CCN(C(C)=O)CC2)cc1: not fulfilled

Record `C=CC(=O)Nc1cccc(Oc2nc(Nc3ccc(N4CCN(C)CC4)c(F)c3)nc3[nH]ccc23)c1` ; criterion: fraction unbound, human plasma no lower than 0.1. Met? not fulfilled

Record `O=C(NC1CCNCC1)c1ccc2[nH]ncc2c1` ; criterion: fraction unbound, human plasma no lower than 0.1. Met? fulfilled
